- subjectOfTest: ActRIIA and ActRIIB (on TGFB/SMAD SBE Reporter HEK293 cells) (human)
- Sequence (chain, as listed by the source, chain 1 of 2): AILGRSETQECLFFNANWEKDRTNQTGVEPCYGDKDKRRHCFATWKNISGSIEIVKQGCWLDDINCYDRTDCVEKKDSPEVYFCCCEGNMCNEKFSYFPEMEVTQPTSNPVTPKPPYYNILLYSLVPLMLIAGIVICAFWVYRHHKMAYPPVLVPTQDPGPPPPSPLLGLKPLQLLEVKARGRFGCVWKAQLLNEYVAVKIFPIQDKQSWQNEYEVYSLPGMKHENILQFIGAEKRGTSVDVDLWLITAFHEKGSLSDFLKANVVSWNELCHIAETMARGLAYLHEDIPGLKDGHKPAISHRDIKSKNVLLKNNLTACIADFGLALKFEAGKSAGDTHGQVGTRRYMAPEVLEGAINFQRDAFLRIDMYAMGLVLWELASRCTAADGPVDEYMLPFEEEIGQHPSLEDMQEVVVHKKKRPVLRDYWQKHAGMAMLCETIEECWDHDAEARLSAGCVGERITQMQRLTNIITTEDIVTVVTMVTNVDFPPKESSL
- Sequence (chain, as listed by the source, chain 2 of 2): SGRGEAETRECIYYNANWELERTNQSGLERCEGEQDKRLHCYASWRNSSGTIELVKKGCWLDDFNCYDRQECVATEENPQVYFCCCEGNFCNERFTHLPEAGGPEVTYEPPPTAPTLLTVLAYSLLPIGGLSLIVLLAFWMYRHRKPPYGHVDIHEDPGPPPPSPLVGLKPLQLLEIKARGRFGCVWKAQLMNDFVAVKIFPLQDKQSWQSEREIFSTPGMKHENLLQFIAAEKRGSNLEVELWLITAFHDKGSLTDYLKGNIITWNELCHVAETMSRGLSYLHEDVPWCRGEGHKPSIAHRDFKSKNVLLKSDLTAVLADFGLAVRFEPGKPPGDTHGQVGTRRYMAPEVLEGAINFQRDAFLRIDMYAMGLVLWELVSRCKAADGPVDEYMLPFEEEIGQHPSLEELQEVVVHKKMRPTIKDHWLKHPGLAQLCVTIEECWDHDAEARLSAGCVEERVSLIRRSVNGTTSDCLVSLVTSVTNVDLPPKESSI
- experiment: cell-based or functional assay
Kindly state IC50 fold difference (Fab:IgG), Activin SMAD RGA for each of the entries shown.
Answers are plain numbers, in fold.

Record excerpt, results attached:
1. Hefaknöpfla Fab (Fab, V domains shown, Fab) VH: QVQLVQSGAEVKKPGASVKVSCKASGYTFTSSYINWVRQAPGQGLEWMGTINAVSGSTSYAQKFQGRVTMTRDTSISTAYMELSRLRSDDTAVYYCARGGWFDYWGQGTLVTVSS VL: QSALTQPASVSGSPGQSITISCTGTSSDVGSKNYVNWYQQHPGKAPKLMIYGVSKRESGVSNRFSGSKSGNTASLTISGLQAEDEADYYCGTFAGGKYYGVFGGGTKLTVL: 31.5
2. Fasnetsküchla Fab (Fab, V domains shown, Fab) VH: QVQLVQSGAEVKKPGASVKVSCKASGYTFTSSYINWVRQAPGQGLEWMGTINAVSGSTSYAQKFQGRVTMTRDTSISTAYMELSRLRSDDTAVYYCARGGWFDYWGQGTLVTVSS VL: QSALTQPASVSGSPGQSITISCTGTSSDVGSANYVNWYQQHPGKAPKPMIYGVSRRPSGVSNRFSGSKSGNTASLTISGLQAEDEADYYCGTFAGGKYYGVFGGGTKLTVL: 2.8
3. Biiramooscht Fab (Fab, V domains shown, Fab) VH: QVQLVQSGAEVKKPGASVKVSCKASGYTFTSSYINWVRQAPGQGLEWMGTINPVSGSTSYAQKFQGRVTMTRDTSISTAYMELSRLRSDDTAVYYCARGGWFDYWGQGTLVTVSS VL: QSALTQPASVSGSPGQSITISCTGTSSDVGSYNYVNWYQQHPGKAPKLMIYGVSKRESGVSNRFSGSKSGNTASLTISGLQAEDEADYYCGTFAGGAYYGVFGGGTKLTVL: 7.4
4. Duuranad Fab (Fab, V domains shown, Fab) VH: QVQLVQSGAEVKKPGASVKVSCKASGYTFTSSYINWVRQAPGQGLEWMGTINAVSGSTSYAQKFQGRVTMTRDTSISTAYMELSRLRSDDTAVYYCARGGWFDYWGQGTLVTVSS VL: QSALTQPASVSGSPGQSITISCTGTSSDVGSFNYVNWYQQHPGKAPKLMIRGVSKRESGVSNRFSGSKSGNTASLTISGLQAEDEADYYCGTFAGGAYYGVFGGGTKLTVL: 20.5
5. Rippla Fab (Fab, V domains shown, Fab) VH: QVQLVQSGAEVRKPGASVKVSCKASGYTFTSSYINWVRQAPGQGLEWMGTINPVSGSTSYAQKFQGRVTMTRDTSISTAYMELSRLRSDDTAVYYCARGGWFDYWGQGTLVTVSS VL: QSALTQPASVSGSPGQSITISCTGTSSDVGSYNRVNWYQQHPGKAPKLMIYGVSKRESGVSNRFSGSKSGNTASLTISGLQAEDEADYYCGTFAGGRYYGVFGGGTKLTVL: 4.6
6. Riaba Fab (Fab, V domains shown, Fab) VH: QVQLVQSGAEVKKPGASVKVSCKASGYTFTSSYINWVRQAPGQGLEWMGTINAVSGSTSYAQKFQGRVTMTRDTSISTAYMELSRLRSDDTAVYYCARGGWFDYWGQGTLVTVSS VL: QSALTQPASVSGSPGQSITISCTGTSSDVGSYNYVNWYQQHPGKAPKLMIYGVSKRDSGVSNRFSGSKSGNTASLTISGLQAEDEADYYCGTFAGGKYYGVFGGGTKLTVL: 196

Alright, here's another binder for you.
**Q:** Recorded IC50 fold difference (Fab:IgG), Activin SMAD RGA for Wurschdsalat Fab (Fab, V domains shown, Fab) VH: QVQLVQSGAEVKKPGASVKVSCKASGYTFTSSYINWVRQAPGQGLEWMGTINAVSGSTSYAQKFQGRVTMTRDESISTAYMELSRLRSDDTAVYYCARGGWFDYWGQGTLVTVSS VL: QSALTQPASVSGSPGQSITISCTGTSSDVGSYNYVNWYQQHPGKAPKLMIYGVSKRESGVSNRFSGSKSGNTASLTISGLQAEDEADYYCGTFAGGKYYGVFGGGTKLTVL , please?
**A:** 33.8

Data provenance is patent US20250243286A1.
